// data source = a melting point compilation (Tetko et al.; mined from patent text by program, amines drawn as free bases though some values may be those of a salt)

Listing of entries alongside the reported melting point.

Here are 2 molecules together with their reported answers.
{"columns": ["MOLECULE", "melting point"],
 "data": [
  ["CNC(=O)c1ccccc1S(=O)(=O)Cc1c(O[C@H](Cn2ccnc2)c2ccccc2)ccc2c1CCCC2=O", "249 to 251 °C"],
  ["COc1ccccc1CN[C@H]1CCCN(Cc2ccccc2)[C@H]1c1ccccc1 (relative stereo)", "68 to 70 °C"]
]}

query: Fill blank: measured melting point of the molecule `C#Cc1cc(C=Cc2cc(C(C)(C)C)cc(C(C)(C)C)c2)cc(C=Cc2cc(C(C)(C)C)cc(C(C)(C)C)c2)c1` is ____.
result: 156 to 157 °C
